# tested-system: Cannabinoid receptor 1 (Homo sapiens)
# Sequence (P21554 whole entry): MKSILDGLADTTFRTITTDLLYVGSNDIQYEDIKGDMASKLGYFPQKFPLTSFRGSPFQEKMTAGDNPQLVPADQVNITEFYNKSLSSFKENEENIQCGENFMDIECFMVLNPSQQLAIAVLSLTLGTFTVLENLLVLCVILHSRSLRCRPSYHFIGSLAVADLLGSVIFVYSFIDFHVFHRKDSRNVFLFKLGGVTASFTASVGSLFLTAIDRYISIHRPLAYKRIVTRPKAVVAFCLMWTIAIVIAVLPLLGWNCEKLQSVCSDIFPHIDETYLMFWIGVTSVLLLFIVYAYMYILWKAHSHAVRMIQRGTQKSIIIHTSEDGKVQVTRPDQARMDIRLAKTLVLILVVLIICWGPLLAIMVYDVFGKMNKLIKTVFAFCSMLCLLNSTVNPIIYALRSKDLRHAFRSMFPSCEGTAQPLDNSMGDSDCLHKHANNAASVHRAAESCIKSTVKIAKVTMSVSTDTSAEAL
# assay-name: Binding affinity to CB1 receptor (unknown origin) assessed as inhibition constant

given-smiles: CCCn1c(C)c(C(=O)c2ccc3ccccc3c2)c2ccccc21
tested-system: Cannabinoid receptor 1 (Homo sapiens)
result-unit: nM
Ki: 383

###

# tested-system: UniProt P34972
# Sequence (P34972 whole entry): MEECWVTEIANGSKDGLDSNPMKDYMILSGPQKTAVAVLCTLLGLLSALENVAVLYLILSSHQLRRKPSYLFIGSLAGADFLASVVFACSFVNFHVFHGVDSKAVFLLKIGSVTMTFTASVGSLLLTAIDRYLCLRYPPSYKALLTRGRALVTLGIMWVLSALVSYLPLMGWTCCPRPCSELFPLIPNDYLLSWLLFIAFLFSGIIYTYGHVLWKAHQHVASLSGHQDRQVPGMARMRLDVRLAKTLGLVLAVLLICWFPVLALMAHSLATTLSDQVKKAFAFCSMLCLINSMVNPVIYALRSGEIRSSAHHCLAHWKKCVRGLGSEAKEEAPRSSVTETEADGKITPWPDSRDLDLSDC
# assay-name: Binding affinity to human CB2 receptor stably expressed in HEK cells assessed as inhibition constant by […]
# Type: cell-based
measured-parameter: Ki (nM)

given-smiles: CCOc1ccc(Nc2nc3cc(C(=O)N(CC)CC)ccc3n2CCC(C)C)cc1
measured-parameter: Ki
observed-value: 1.9

###

# tested-system: Cannabinoid receptor 1 (Rattus norvegicus, UniProt P20272)
# Sequence (P20272 whole entry): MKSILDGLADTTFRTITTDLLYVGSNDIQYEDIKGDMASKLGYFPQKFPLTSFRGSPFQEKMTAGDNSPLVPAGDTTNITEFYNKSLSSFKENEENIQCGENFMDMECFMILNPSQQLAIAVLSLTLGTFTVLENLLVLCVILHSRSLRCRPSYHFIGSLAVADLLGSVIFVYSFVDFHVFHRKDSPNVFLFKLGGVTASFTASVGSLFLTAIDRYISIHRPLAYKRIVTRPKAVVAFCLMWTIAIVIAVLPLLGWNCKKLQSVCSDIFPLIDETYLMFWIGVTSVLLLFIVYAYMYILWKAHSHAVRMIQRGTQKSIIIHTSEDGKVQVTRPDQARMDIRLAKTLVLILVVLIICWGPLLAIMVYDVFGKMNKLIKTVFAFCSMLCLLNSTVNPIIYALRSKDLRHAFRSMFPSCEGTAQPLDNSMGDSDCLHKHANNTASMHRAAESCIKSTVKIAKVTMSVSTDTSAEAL
Let's look at some compounds and their measured Ki.

compound: CCCC(C)(C)c1ccc2c(c1)OC(C)(C)C1CC=C(C)CC21 (configuration not stated)
Ki: 677 nM
--
compound: CCC(C)(C)c1ccc2c(c1)OC(C)(C)C1CC=C(C)CC21 (configuration not stated)
Ki: 2290 nM
